Molecular target: Human immunodeficiency virus type 1 reverse transcriptase (Human immunodeficiency virus 1)
Assay: Inhibition of HIV-1 reverse transcriptase at 37 degree Centigrade
METRIC: EC50 (µM)

{"COMPOUND": "Cc1c(Sc2ccccc2)n(COCCO)c(=O)[nH]c1=O", "EC50 / µM": 7}
{"COMPOUND": "Cc1c(Cc2ccccc2)n(COCCO)c(=O)[nH]c1=O", "EC50 / µM": 23}

a: CCOCn1c(Cc2ccccc2)c(C(C)C)c(=O)[nH]c1=O
b: Cc1c(Oc2ccccc2)n(COCCO)c(=O)[nH]c1=O
query: Sort a and b by EC50 descending and give the first. Label of pick, please.
result: b
(b: 85 µM, a: 0.004 µM)

---

Molecular target: Human immunodeficiency virus type 1 reverse transcriptase (Human immunodeficiency virus 1, UniProt Q72547)
METRIC: IC50 (nM)
Write the number in nM without appending the unit.

query: Give the measured IC50 of CCc1ccnc2c1N(C)C(=O)c1cccnc1N2CC .
result: 110
